# system tested: hOT7T175 (Homo sapiens, UniProt Q969F8, L364H)
# Sequence (Q969F8 whole entry L364H): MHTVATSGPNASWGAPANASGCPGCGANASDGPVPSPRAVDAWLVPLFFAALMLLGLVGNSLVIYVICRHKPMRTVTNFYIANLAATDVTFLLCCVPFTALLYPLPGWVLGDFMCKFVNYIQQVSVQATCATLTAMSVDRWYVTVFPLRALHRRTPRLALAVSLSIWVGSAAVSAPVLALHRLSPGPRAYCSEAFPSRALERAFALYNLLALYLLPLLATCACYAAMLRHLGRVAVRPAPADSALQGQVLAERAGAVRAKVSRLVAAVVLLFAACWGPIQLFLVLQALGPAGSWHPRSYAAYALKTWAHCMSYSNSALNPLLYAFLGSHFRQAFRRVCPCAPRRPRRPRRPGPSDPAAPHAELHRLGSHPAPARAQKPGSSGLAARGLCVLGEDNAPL
# test: hOT7T175 receptor binding activity: binding inhibition of Cy-5-labeled metastin (40-54) on hOT7T175-expressed CHO cells
Square brackets hold non-standard residues; d marks the D form. Peptide text beside a SMILES is read from it. Phe(4-F) = N[C@@H](Cc1ccc(F)cc1)C(=O)O; Arg(Me) = CNC(=N)NCCC[C@H](N)C(=O)O; 3Pal = N[C@@H](Cc1cccnc1)C(=O)O; azaGly = NNC(=O)O
Can you tell me pIC50 for the items I'm about to list?
Answers are plain numbers, as −log10 of the molar value.

Please review the following examples before continuing.
CNC(=N)NCCC[C@H](NC(=O)[C@H](CC(C)C)NC(=O)CNC(=O)[C@H](Cc1ccccc1)NC(=O)[C@H](CO)NC(=O)[C@H](CC(N)=O)NC(=O)[C@@H](Cc1c[nH]c2ccccc12)NC(=O)[C@H](N)CC(N)=O)C(=O)N[C@@H](Cc1ccccc1)C(N)=O [Compound No. 225] (H-[dN][dW]NSFGL[Arg(Me)]F-NH2): 6.39
CNC(=N)NCCC[C@H](NC(=O)[C@H](CC(C)C)NC(=O)NNC(=O)[C@H](Cc1ccccc1)NC(=O)[C@H](CO)NC(=O)[C@H](CC(N)=O)NC(=O)[C@@H](NC(=O)[C@@H](CC(N)=O)NC(=O)[C@H](N)Cc1ccc(O)cc1)[C@@H](C)O)C(=O)N[C@@H](Cc1ccc(F)cc1)C(N)=O [Compound No. 316] (H-[dY][dN]TNSF[azaGly]L[Arg(Me)][Phe(4-F)]-NH2): 7.59
CNC(=N)NCCC[C@H](NC(=O)[C@H](CC(C)C)NC(=O)CNC(=O)[C@H](Cc1ccccc1)NC(=O)[C@H](CO)NC(=O)[C@H](CC(N)=O)NC(=O)[C@@H](Cc1c[nH]c2ccccc12)NC(=O)[C@H](N)Cc1ccc(O)cc1)C(=O)N[C@@H](Cc1ccccc1)C(N)=O [Compound No. 224] (H-[dY][dW]NSFGL[Arg(Me)]F-NH2): 6.85
CNC(=N)NCCC[C@H](NC(=O)[C@H](CC(C)C)NC(=O)NNC(=O)[C@H](Cc1ccccc1)NC(=O)[C@H](CO)NC(=O)[C@H](CC(N)=O)NC(=O)[C@@H](Cc1c[nH]c2ccccc12)NC(=O)[C@H](CC(N)=O)NC(=O)[C@H](N)Cc1ccc(O)cc1)C(=O)N[C@@H](Cc1ccccc1)C(N)=O: 7.38
CNC(=N)NCCC[C@H](NC(=O)[C@H](CC(C)C)NC(=O)NNC(=O)[C@H](Cc1ccccc1)NC(=O)[C@H](CO)NC(=O)[C@H](CC(N)=O)NC(=O)[C@H](Cc1cccnc1)NC(=O)[C@H](CC(N)=O)NC(=O)[C@H](N)Cc1ccc(O)cc1)C(=O)N[C@@H](Cc1ccccc1)C(N)=O [Compound No. 251] (H-[dY]N[3Pal]NSF[azaGly]L[Arg(Me)]F-NH2): 7.06

Here's the next entry for you.
*Q* So what's the measured pIC50 for this one? `CC(C)C[C@H](NC(=O)CNC(=O)[C@H](Cc1ccccc1)NC(=O)[C@H](CO)NC(=O)[C@H](CC(N)=O)NC(=O)[C@H](Cc1c[nH]c2ccccc12)NC(=O)[C@H](CC(N)=O)NC(=O)[C@@H](N)Cc1ccc(O)cc1)C(=O)N[C@@H](CCCNC(=N)N)C(=O)N[C@@H](Cc1ccc(Cl)cc1)C(N)=O`
*A* 7.38
